system-name: Corticotropin-releasing factor receptor 2/Corticotropin-releasing factor-binding protein (Homo sapiens, UniProt P24387+Q13324)
Sequence (Q13324 whole entry): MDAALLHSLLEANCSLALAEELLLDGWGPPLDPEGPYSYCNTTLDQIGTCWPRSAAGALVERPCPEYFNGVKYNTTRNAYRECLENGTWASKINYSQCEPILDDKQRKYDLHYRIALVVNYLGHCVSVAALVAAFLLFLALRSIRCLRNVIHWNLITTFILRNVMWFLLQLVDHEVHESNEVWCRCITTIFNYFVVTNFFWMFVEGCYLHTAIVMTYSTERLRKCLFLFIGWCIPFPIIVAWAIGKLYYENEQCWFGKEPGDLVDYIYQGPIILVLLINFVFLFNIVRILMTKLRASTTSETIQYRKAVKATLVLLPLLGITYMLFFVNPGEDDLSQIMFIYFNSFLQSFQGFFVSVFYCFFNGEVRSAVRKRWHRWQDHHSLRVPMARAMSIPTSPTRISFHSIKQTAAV
Sequence (P24387 whole entry): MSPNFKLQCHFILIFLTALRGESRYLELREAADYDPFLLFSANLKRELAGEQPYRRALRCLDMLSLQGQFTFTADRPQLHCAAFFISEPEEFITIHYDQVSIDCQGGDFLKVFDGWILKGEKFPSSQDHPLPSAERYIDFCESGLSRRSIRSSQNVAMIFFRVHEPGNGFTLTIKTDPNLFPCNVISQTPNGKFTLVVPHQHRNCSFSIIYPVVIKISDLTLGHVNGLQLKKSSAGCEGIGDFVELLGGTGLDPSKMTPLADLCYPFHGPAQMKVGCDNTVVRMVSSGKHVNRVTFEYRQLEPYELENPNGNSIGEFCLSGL
test-protocol: activators of CRF receptor 2 with binding protein – uHTS hits, confirmation (AID 602473)
Type: functional
assay-conditions: read-out: EC50_Mean
The source made the active and inactive calls.
Outcome codes: active, inactive

COC(=O)c1ccc(OCC(O)CN2C(=O)c3ccccc3S2(=O)=O)cc1 (stereo unspecified)    inactive
CC(OC(=O)c1ccc(-c2ccc(O)cc2)cc1)C(=O)NC1CCCCC1C (stereo unspecified)    inactive
CC(C)Cc1ccc(C(C)C(=O)Nc2cccnc2)cc1 (stereo unspecified)    inactive
COc1cc(OC)cc(C(=O)NC2CC3CCC(C2)N3Cc2ccco2)c1 (stereo unspecified)    inactive
Cc1cc(C)cc(NS(=O)(=O)c2ccc3ncc(C(=O)N4CCc5ccccc54)c(O)c3c2)c1    inactive
CC(C)Cc1ccc(C(C)C(=O)Nc2ccccc2O)cc1 (stereo unspecified)    active
O=C(CCCCn1c(=O)c2ccccc2n(Cc2ccc(F)cc2Cl)c1=O)NCc1ccco1    inactive
O=C(O)C(=O)/C(=C\c1cccc2ccccc12)c1ccc2ccccc2n1    active
CCOc1ccc(NC(=O)CCNS(=O)(=O)c2cccc3nonc23)cc1    inactive
C=CCN1C(=O)NC(=O)/C(=C(/CC)NCc2ccc3c(c2)OCO3)C1=O    inactive
Cc1noc(/C=C/N(C)C)c1S(=O)(=O)N1CCC(C(=O)Nc2ccc(Cl)cc2)CC1    inactive
Cc1ccc(NC(=O)c2ccccc2NS(=O)(=O)c2ccc(F)cc2)cc1S(=O)(=O)N1CCCCC1    active
C=CCCC(=O)N1CCC(n2nccc2NC(=O)c2ccc(OC)cc2)CC1    inactive
CCN(CC)CCOC(=O)C(Cc1ccco1)Cc1cccc2ccccc12 (stereo unspecified)    inactive
O=C1S/C(=C\c2ccc(O)c([N+](=O)[O-])c2)C(=O)N1Cc1cccc([N+](=O)[O-])c1    inactive
c1ccc(-c2cc3nccc(-c4ccccn4)n3n2)cc1    inactive

* * *

system-name: Rac GTPase-activating protein 1 (Homo sapiens, UniProt Q9H0H5)
Sequence (Q9H0H5 whole entry): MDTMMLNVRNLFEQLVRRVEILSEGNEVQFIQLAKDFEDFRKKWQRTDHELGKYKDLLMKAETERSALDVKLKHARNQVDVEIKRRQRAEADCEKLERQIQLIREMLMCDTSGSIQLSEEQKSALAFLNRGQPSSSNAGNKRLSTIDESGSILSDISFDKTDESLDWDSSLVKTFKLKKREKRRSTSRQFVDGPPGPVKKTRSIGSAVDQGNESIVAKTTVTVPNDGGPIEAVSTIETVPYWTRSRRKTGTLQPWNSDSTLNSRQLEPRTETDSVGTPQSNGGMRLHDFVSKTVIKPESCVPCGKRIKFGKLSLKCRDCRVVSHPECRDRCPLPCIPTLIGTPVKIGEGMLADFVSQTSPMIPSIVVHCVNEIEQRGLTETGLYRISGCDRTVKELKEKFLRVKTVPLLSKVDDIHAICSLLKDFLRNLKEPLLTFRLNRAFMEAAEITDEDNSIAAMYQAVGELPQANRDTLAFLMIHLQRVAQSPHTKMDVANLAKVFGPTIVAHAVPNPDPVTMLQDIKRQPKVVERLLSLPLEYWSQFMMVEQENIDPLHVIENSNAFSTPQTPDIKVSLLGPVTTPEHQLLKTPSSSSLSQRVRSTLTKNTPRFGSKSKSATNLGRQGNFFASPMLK
test-protocol: MgcRacGAP GTPase-activating activity inhibitors, confirmation, biochemical, ADP Hunter fluorescence, primary and confirmatory (AID 624330)
Type: functional
Calls of active or inactive are those of the source.
property-name: IC50

NNc1cc([N+](=O)[O-])cc2c1c(=O)n(Cc1ccccc1)[s+]2[O-] (configuration not stated)    52.3 µM (active)
CCN(CC)CC(C)(C)C(=O)/C=C/c1ccc(/C=C/C(=O)C(C)(C)CN(CC)CC)cc1    158 µM (active)
O=C1C(=Cc2cccc(O)c2O)SC(=S)N1CCCN1CCOCC1    45.5 µM (active)
Cn1c(N=Nc2ccc(N3CCOCC3)cc2)[n+](C)c2ccccc21    26 µM (active)
CN1CCN(c2ccc(N)cc2)CC1    32.3 µM (active)
Cc1c(-c2ccccc2)sc(N)c1C(=O)N1CCOCC1    41.5 µM (active)
Oc1ccc(/C=C/c2nc3ccccc3nc2O)cc1    31.5 µM (active)

* * *

system-name: Protein RecA (Mycobacterium tuberculosis)
test-protocol: Fluorescence Cell-Free Homogeneous Dose Retest to Identify Inhibitors of RecA-Intein Splicing Activity. [Related pubchem assays (depositor defined):AID2097, AID2223, AID489010, AID492950]
Format: functional
The source made the active and inactive calls.
property-name: EC50

Cc1cc(=O)n(-c2ccccc2Cl)[nH]1    5.4 µM (active)
Cc1cc(-c2[nH]nc3c2C(c2cccc(O)c2)C(C#N)=C(N)O3)c(C)s1 (stereo not drawn)    2.65 µM (active)
N#CC1=C(N)Oc2[nH]nc(-c3cccs3)c2C1c1ccoc1 (stereo not drawn)    7.09 µM (active)

* * *

Dear all, this message contains AC50 results, target or system Cytochrome P450 3A4 (Homo sapiens).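 Also: CYP3A4 tested as one member of a cytochrome P450 panel screen.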
property-name: AC50

Cc1c(N2CCCC2)cc2c(c1NC(=O)c1ccccc1Cl)C(C)(C)CC2(C)C    0.631 µM (inconclusive)
O=C(C1=C(O)C(=O)N(c2cccc(Cl)c2)C1c1ccccc1[N+](=O)[O-])c1ccccc1 (configuration not stated)    12.6 µM (inconclusive)
COc1cccc(Nc2ncc3nc(-c4cc(F)cc(F)c4)c(=O)n(C[C@H]4CCCO4)c3n2)c1    6.31 µM (inconclusive)
O=C(c1cc(C(F)(F)F)cc(C(F)(F)F)c1)N1CCC2(CCCN(Cc3ccncc3)C2)CC1    10 µM (inconclusive)
O=C(CNCCO)N1CCc2ccccc21    1.41 µM (inconclusive)
CCCCN1CCC(COC(=O)c2cc(Cl)c(N)c3c2OCCO3)CC1    3.16 µM (inconclusive)
CC[C@@H]1OC(=O)[C@H](C)[C@H](O[C@@H]2C[C@](C)(OC)[C@H](O)[C@H](C)O2)[C@H](C)[C@H](O[C@@H]2O[C@@H](C)C[C@@H](N(C)C)[C@@H]2O)[C@](C)(O)C[C@H](C)C(=O)[C@H](C)[C@H](O)[C@]1(C)O    12.6 µM (inconclusive)
O=C(CCN1CCN(CC(=O)Nc2ccccc2Cl)CC1)Nc1ccccc1F    20 µM (inconclusive)
C=C1C/C(=C\C)C(=O)O[C@@H]2CCN3CC=C(COC(=O)[C@@]1(C)O)[C@H]23    12.6 µM (inconclusive)
O=C(CSc1nnc2c(n1)[nH]c1ccc(F)cc12)OCc1ccccc1    8.91 µM (inconclusive)
Cc1cc(O)c(C(C)C)cc1NC(=O)Nc1cccc2ccccc12    3.16 µM (inconclusive)
Cc1nc(N)nc(S)c1CCCNc1ccccc1    6.31 µM (inconclusive)
CCOC(=O)C1C(=O)C=C(c2ccc(NS(C)(=O)=O)cc2)CC1c1ccco1 (configuration not stated)    25.1 µM (inconclusive)
CCOC(=O)CC(=O)CSc1n[nH]c2c3ccccc3nc-2n1    2.51 µM (inconclusive)
CC(=O)NCCNc1ccnc(-c2ccccc2C)n1    20 µM (inconclusive)
CCCCC(=O)NC(=S)Nc1cccc(NC(=O)CC)c1    20 µM (inconclusive)
Cc1cnc(CNc2ccnc(-c3ccccc3C)n2)cn1    20 µM (inconclusive)

* * *

Reported EC50 values for a set of compounds
system-name: Voltage-dependent T-type calcium channel subunit alpha-1H (Homo sapiens, UniProt O95180);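 also: channel activity triggered by adding a high calcium stimulation buffer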
Sequence (O95180 whole entry): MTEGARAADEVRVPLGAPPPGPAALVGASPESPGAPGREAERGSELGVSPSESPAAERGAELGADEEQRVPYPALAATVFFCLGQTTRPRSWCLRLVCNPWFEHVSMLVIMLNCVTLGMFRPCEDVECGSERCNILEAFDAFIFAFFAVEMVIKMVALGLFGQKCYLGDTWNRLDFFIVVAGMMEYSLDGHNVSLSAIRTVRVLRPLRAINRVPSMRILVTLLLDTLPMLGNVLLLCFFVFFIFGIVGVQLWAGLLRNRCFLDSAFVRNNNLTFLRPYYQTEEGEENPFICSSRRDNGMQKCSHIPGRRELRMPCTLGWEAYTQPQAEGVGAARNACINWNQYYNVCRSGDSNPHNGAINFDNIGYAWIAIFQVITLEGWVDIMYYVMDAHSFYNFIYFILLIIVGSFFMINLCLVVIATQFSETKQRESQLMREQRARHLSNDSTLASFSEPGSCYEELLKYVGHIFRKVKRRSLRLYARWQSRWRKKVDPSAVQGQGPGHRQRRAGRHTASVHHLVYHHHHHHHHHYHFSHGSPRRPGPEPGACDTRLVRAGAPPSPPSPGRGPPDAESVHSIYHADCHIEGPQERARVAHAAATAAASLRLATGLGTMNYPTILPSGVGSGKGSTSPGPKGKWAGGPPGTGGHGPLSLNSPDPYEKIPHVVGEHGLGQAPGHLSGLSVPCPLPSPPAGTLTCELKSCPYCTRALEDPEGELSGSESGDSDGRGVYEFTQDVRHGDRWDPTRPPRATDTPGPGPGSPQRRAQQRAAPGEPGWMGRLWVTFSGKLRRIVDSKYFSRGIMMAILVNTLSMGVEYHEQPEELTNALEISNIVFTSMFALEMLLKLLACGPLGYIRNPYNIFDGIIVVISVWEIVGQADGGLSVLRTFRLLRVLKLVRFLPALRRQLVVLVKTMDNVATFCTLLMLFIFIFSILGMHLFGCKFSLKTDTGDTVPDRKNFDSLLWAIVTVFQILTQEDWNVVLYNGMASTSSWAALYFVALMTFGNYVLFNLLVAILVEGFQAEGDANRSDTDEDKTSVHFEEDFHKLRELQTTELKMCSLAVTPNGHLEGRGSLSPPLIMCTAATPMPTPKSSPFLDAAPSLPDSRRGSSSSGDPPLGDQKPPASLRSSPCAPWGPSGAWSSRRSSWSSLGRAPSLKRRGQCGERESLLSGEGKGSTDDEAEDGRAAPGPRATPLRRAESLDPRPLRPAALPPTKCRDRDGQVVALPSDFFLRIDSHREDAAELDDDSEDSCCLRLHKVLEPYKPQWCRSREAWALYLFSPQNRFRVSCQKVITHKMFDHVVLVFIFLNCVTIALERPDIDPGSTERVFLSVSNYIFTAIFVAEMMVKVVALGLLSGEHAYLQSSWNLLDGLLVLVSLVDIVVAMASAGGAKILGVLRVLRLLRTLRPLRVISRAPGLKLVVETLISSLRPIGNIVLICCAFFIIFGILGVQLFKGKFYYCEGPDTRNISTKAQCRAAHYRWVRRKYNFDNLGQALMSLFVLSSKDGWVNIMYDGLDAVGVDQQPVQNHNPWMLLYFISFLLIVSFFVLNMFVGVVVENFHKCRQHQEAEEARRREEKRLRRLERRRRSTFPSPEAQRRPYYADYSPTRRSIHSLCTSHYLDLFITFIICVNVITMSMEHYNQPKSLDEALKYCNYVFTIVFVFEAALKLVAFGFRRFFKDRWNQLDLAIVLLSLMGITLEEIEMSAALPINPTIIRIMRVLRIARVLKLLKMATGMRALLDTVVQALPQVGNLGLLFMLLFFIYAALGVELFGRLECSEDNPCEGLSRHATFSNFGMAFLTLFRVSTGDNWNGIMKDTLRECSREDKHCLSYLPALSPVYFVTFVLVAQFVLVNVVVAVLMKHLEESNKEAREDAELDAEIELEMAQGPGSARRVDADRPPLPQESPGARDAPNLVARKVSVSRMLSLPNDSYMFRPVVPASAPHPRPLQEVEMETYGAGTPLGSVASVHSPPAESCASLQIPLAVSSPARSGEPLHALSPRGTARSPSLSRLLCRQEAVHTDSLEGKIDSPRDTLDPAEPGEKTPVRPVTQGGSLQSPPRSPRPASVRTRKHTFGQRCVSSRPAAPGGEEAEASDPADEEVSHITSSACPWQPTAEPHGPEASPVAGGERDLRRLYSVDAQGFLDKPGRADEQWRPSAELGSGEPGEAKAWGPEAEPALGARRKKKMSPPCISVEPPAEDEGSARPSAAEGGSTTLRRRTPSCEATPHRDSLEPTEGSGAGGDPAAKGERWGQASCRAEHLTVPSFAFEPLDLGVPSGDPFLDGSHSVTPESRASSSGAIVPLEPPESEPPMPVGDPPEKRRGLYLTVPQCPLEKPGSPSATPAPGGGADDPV
Type: functional
The source made the active and inactive calls.
property-name: EC50

Cn1c(CSc2nc3ccccc3s2)nc2ccccc21    17.4 µM (active)
c1ccc(-c2noc(CSc3nnc(Cc4cccs4)n3-c3ccccc3)n2)cc1    4.16 µM (active)
CCCc1nc2ccccc2n1CCOc1ccccc1    8.61 µM (active)

* * *

system-name: Cytochrome P450 2C19 (Homo sapiens, UniProt P33261)
Sequence (P33261 whole entry): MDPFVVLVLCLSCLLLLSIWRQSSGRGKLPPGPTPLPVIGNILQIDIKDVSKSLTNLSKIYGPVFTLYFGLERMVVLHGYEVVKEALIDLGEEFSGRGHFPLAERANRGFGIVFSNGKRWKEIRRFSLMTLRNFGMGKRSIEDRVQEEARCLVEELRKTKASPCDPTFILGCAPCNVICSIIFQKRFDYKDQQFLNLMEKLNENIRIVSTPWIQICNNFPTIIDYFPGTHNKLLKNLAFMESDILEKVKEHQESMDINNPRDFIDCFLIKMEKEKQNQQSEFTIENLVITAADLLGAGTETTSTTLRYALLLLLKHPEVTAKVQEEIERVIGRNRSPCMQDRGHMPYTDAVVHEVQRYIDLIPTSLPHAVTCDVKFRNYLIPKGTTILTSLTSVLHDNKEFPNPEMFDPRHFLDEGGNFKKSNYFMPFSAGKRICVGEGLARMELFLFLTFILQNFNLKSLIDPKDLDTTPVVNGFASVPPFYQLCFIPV
test-protocol: Cytochrome panel assay with activity outcomes. Panel member name: p450-cyp2c19 Compounds with AC50 equal or less than 10 uM are considered active
Format: functional
assay-conditions: read-out: AC50
property-name: AC50

C/C(=N\NC(N)=O)c1ccc(Cl)cc1    31.6 µM (inconclusive)
O=C(c1cc(C(F)(F)F)cc(C(F)(F)F)c1)N1CCC2(CCCN(Cc3ccncc3)C2)CC1    25.1 µM (inconclusive)
CC(C)(C)NS(=O)(=O)c1ccc(NC(=O)NC2CCCCC2)cc1    25.1 µM (inconclusive)
COC(=O)C1=C(NC(=O)c2cccs2)CCS1    17.8 µM (inconclusive)
CNc1ncnc2ccc(-c3cccc(NS(C)(=O)=O)c3)cc12    20 µM (inconclusive)
O=C(CN(Cc1ccccc1Cl)C(=O)c1ccc(CN2CCOCC2)o1)NCC1CCCO1 (configuration not stated)    10 µM (inconclusive)
Cc1nc2n(c(=O)c1CCN1CCC(c3noc4cc(F)ccc34)CC1)CCCC2    1.58 µM (inconclusive)
